- Assay name: self-splicing fitness, log relative to wild type (ln ratio); higher = more splicing; Tetrahymena group I intron in knt gene, E. coli kanamycin selection, DiMSum; sequences stand for … in CUCUCU…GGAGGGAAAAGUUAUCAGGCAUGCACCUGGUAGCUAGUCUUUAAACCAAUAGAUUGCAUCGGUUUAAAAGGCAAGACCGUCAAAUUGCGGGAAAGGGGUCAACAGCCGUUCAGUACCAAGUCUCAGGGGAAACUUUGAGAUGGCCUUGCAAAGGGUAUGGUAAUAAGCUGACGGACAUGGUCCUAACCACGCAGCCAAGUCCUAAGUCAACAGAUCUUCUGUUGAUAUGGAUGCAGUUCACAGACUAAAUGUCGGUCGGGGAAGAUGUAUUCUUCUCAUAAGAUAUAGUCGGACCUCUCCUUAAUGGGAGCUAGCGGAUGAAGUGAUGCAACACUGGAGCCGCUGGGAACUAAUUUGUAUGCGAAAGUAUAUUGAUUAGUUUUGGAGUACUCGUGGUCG;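 also: selection with 25 µg/mL kanamycin versus none on LB agar overnight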
- Experimental setup: 30 °C
self-splicing fitness (ln) values, listed per item
// no unit string in output, number only

The following sequences have reported results that may help.
Macromolecule sequence: GAUAAGCAAUAUUACGCAUC
self-splicing fitness (ln): -3.06

Macromolecule sequence: GCUUAGCAAUAUUACGCAAA
self-splicing fitness (ln): -2.95

Macromolecule sequence: ACGCAGCAAUAUUACGUAGC
self-splicing fitness (ln): -3.47

Macromolecule sequence: UUCUAGCAAUAUUACGUCCU
self-splicing fitness (ln): -1.87

Macromolecule sequence: ACUCAGCAAUAUUACGAUAA
self-splicing fitness (ln): -1.25

Looking up GAAUAGCAAUAUUACGAACU , I found its self-splicing fitness (ln) recorded as -0.471

Looking up GUUCAGCAAUAUUACGCGAC , I found its self-splicing fitness (ln) recorded as -3.9

====

- Assay name: self-splicing fitness, log relative to wild type (ln ratio); higher = more splicing; Tetrahymena group I intron in knt gene, E. coli kanamycin selection, DiMSum; sequences stand for … in CUCUCU…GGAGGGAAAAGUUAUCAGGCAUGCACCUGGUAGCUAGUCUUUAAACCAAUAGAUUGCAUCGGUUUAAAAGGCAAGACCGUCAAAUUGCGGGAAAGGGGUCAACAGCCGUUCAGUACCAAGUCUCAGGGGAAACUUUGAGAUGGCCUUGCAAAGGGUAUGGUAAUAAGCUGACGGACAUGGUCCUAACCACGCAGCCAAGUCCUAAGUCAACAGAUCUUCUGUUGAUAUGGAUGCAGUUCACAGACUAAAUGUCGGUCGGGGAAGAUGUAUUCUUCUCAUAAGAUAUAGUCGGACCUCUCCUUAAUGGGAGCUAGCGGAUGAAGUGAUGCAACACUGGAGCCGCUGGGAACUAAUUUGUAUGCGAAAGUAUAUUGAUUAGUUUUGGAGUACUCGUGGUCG
- Experimental setup: 30 °C
self-splicing fitness (ln) values, listed per item
// no unit string in output, number only

The following sequences have reported results that may help.
Macromolecule sequence: CAUGAGCAAUAUUACGAUGU
Value type: self-splicing fitness (ln)
Quantitative result: -2.32

Macromolecule sequence: GAUAAGCAAUAUUACGCGGG
Value type: self-splicing fitness (ln)
Quantitative result: -2.89

Macromolecule sequence: CCUAAGCAAUAUUACGGUGA
Value type: self-splicing fitness (ln)
Quantitative result: -3.89

Macromolecule sequence: GGCCAGCAAUAUUACGGAUU
Value type: self-splicing fitness (ln)
Quantitative result: -0.639

Macromolecule sequence: GCUGAGCAAUAUUACGCACU
Value type: self-splicing fitness (ln)
Quantitative result: -1.78

Macromolecule sequence: GAGCAGCAAUAUUACGUAUA
Value type: self-splicing fitness (ln)
Quantitative result: -3.2

Macromolecule sequence: UACGAGCAAUAUUACGUUGU
Value type: self-splicing fitness (ln)
Quantitative result: -3.36

Macromolecule sequence: UUACAGCAAUAUUACGCAGG
Value type: self-splicing fitness (ln)
Quantitative result: -1.79

Looking up UAAUAGCAAUAUUACGGGUC , I found its self-splicing fitness (ln) recorded as -3.33

Looking up UUGUAGCAAUAUUACGAUGU , I found its self-splicing fitness (ln) recorded as -3.86

Looking up GCAGAGCAAUAUUACGGAAG , I found its self-splicing fitness (ln) recorded as -2.98

Looking up GUUGAGCAAUAUUACGUACU , I found its self-splicing fitness (ln) recorded as -2.91

Looking up GCUAAGCAAUAUUACGUAGA , I found its self-splicing fitness (ln) recorded as -0.845

Looking up AUCCAGCAAUAUUACGAUAA , I found its self-splicing fitness (ln) recorded as -1.56

Looking up AAGAAGCAAUAUUACGACAG , I found its self-splicing fitness (ln) recorded as -2.2

Looking up UCCAAGCAAUAUUACGGAUC , I found its self-splicing fitness (ln) recorded as -3.49

Looking up GCACAGCAAUAUUACGCUGC , I found its self-splicing fitness (ln) recorded as -4.12

Looking up GCACAGCAAUAUUACGGGUA , I found its self-splicing fitness (ln) recorded as -1.36

Looking up CGCUAGCAAUAUUACGGAAU , I found its self-splicing fitness (ln) recorded as -3.52

Looking up UUUGAGCAAUAUUACGGACG , I found its self-splicing fitness (ln) recorded as -2.51

Looking up GCUUAGCAAUAUUACGCAGG , I found its self-splicing fitness (ln) recorded as -1.27
